Sourced from PubChem BioAssay AID1159580

Assign normalized growth to each entry below.
# assayRemarks: chemical genetic growth profiling, strain panel (AID 1159580);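 further: tested at 20 µM; growth read once vehicle control cultures reached saturation at 30 °C; 1 = growth at the plate median or of vehicle wells; lower values mean less growth of the strain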
# assayConditions: S. cerevisiae deletion strains, growth OD, locus YHR087W, strain rtc3, stronger effect = lower value
Among all 5,500 compounds or so, about 2,000 (36%) were called active. Roughly 18% stayed inconclusive and do not appear here. The list shows a part of the results.

Challenge: Fill in reported normalized growth for this entry: "c1cc(C2CCCCC2)ccc1C1CCCCC1"
Response given: 1.04 (inactive)

Challenge: Given "CCOC(=O)c1cnc2nc(SC)nn2c1N" , respond with its normalized growth.
Response given: 0.994 (inactive)

Challenge: Annotate the compound "CC1=NN(c2cccc(S(N)(=O)=O)c2)C(=O)C1" with its measured normalized growth.
Response given: 1.01 (inactive)

Challenge: Name the recorded normalized growth of the item "Cn1c(=O)c(-c2ccccc2)c(O)c2ccccc21" in your answer.
Response given: 0.99 (inactive)

Challenge: Report normalized growth for "COc1cc(/C=C2/SC(=S)NC2=O)cc(OC)c1OC"
Response given: 0.911 (inactive)
